- Assay target: human ROCKα/ROCKII mix (Homo sapiens, UniProt O75116)
- Construct: purchased Upstate Biotechnology 14-451
- Sequence (O75116 whole entry): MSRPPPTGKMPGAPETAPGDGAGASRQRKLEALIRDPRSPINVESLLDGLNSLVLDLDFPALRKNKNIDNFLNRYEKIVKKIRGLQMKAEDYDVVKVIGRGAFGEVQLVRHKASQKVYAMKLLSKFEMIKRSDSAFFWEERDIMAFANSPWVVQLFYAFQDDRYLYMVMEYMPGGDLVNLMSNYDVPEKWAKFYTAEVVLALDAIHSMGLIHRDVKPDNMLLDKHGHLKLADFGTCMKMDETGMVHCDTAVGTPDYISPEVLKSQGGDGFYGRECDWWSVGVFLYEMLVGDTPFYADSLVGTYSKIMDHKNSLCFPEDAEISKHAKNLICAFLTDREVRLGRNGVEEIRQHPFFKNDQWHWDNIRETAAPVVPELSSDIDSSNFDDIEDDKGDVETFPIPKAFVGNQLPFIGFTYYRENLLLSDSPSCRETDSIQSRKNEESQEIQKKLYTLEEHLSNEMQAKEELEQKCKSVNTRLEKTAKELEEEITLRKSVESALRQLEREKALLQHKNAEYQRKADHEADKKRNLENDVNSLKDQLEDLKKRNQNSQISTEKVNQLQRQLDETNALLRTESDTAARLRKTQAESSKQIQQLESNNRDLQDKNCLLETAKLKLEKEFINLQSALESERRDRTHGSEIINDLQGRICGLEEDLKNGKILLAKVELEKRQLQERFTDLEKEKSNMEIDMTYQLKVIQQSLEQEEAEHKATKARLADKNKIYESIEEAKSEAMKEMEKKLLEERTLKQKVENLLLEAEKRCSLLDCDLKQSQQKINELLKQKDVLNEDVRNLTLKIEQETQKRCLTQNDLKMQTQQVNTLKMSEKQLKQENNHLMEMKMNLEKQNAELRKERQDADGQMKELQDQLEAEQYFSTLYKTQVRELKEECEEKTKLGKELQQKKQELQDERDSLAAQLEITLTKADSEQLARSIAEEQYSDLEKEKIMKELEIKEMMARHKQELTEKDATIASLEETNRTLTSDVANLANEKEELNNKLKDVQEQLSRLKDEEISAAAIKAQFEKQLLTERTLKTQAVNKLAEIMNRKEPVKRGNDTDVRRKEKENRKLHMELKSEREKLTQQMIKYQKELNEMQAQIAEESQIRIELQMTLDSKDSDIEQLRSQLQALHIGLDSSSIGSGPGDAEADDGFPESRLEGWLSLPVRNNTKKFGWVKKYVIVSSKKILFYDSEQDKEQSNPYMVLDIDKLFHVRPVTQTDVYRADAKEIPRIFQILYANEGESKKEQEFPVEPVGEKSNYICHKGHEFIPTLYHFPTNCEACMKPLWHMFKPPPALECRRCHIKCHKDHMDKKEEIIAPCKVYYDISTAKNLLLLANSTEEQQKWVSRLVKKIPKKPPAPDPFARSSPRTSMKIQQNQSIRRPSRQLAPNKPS
- Experiment description: ROCK inhibition, fluorescence polarization (FP) assay with ROCK IMAP Kit
- Format: biochemical
- Setup conditions: Table 1, compounds of Formula IV20
Listed here are compounds together with their documented IC50.

The following compounds have reported results that may help.
Compound	Assay target	IC50
NC(C(=O)NCCn1cccn1)c1ccc(C(=O)Nc2ccncc2)cc1 (stereo not drawn)	human ROCKα/ROCKII mix (Homo sapiens, UniProt O75116)	0.5 to 5 µM
NC(C(=O)N1CCCC1c1cccc(F)c1)c1ccc(C(=O)Nc2ccncc2)cc1 (stereo not drawn)	human ROCKα/ROCKII mix (Homo sapiens, UniProt O75116)	< 0.5 µM
NC(C(=O)NC1CCN(Cc2ccccc2)CC1)c1ccc(C(=O)Nc2ccncc2)cc1 (stereo not drawn)	human ROCKα/ROCKII mix (Homo sapiens, UniProt O75116)	0.5 to 5 µM

The compound listed as NC(C(=O)N1CCc2ccccc2C1)c1ccc(C(=O)Nc2ccncc2)cc1 (stereo not drawn) has a reported IC50 of < 0.5 µM

Record NC(C(=O)N1CCN(Cc2ccccc2F)CC1)c1ccc(C(=O)Nc2ccncc2)cc1 (stereo not drawn) , field IC50: 0.5 to 5 µM

CN(Cc1ccccc1)C(=O)C(N)c1ccc(C(=O)Nc2ccncc2)cc1 (stereo not drawn) has a reported IC50 of < 0.5 µM

// CC(NC(=O)C(N)c1ccc(C(=O)Nc2ccncc2)cc1)c1ccccc1 (stereo not drawn) : IC50 value = < 0.5 µM

Measured IC50 of COc1ccc(CN2CCN(C(=O)C(N)c3ccc(C(=O)Nc4ccncc4)cc3)CC2)cc1 (stereo not drawn) : 0.5 to 5 µM

Lookup result for CC(C)C(C)NC(=O)C(N)c1ccc(C(=O)Nc2ccncc2)cc1 (stereo not drawn) ; measured IC50: 0.5 to 5 µM

* * *

- Assay target: human ROCKα/ROCKII mix (Homo sapiens, UniProt O75116)
- Construct: purchased Upstate Biotechnology 14-451
- Experiment description: ROCK inhibition, fluorescence polarization (FP) assay with ROCK IMAP Kit
- Type: biochemical
- Setup conditions: Table 2, compounds of Formula V20
Measured quantity: IC50

Completed entries (count: 3):
Compound	IC50
NC(CNS(=O)(=O)c1cccc(-c2ccccc2)c1)c1ccc(C(=O)Nc2ccncc2)cc1 (stereo not shown) [Compound 75]	0.5 to 5 µM
CCCCCCCCS(=O)(=O)NCC(N)c1ccc(C(=O)Nc2ccncc2)cc1 (stereo not shown) [Compound 59]	0.5 to 5 µM
CCCS(=O)(=O)NCC(N)c1ccc(C(=O)Nc2ccncc2)cc1 (stereo not shown) [Compound 57]	< 0.5 µM

// IC50 value for NC(CNS(=O)(=O)c1ccccc1F)c1ccc(C(=O)Nc2ccncc2)cc1 (stereo not shown) [Compound 66] : < 0.5 µM

* * *

We begin with a simple list: items and their reported IC50.
- Assay target: human ROCKα/ROCKII mix (Homo sapiens, UniProt O75116)
- Construct: purchased Upstate Biotechnology 14-451
- Experiment description: ROCK inhibition, fluorescence polarization (FP) assay with ROCK IMAP Kit
- Format: biochemical
- Setup conditions: Table 2, compounds of Formula V20

# annotated cases, reported IC50 shown
Compound	Assay target	IC50
Cc1ccccc1S(=O)(=O)NCC(N)c1ccc(C(=O)Nc2ccncc2)cc1 (centres unmarked)	human ROCKα/ROCKII mix (Homo sapiens, UniProt O75116)	< 0.5 µM
Cc1cccc(S(=O)(=O)NCC(N)c2ccc(C(=O)Nc3ccncc3)cc2)c1 (centres unmarked)	human ROCKα/ROCKII mix (Homo sapiens, UniProt O75116)	< 0.5 µM
CCS(=O)(=O)NCC(N)c1ccc(C(=O)Nc2ccncc2)cc1 (centres unmarked)	human ROCKα/ROCKII mix (Homo sapiens, UniProt O75116)	< 0.5 µM
Cc1nn(C)c(Cl)c1S(=O)(=O)NCC(N)c1ccc(C(=O)Nc2ccncc2)cc1 (centres unmarked)	human ROCKα/ROCKII mix (Homo sapiens, UniProt O75116)	0.5 to 5 µM
CS(=O)(=O)NCC(N)c1ccc(C(=O)Nc2ccncc2)cc1 (centres unmarked)	human ROCKα/ROCKII mix (Homo sapiens, UniProt O75116)	< 0.5 µM
NC(CNS(=O)(=O)c1ccccc1Cl)c1ccc(C(=O)Nc2ccncc2)cc1 (centres unmarked)	human ROCKα/ROCKII mix (Homo sapiens, UniProt O75116)	< 0.5 µM

Query NC(CNS(=O)(=O)c1ccc(F)cc1)c1ccc(C(=O)Nc2ccncc2)cc1 (centres unmarked) yields IC50 of < 0.5 µM

Record NC(CNS(=O)(=O)c1ccc(Cl)cc1)c1ccc(C(=O)Nc2ccncc2)cc1 (centres unmarked) , field IC50: < 0.5 µM
